Catalogue of IC50 values
- test target: JAK2 kinase activity on STAT5 in TF1 cells (Homo sapiens)
- Sequence (O60674 whole entry): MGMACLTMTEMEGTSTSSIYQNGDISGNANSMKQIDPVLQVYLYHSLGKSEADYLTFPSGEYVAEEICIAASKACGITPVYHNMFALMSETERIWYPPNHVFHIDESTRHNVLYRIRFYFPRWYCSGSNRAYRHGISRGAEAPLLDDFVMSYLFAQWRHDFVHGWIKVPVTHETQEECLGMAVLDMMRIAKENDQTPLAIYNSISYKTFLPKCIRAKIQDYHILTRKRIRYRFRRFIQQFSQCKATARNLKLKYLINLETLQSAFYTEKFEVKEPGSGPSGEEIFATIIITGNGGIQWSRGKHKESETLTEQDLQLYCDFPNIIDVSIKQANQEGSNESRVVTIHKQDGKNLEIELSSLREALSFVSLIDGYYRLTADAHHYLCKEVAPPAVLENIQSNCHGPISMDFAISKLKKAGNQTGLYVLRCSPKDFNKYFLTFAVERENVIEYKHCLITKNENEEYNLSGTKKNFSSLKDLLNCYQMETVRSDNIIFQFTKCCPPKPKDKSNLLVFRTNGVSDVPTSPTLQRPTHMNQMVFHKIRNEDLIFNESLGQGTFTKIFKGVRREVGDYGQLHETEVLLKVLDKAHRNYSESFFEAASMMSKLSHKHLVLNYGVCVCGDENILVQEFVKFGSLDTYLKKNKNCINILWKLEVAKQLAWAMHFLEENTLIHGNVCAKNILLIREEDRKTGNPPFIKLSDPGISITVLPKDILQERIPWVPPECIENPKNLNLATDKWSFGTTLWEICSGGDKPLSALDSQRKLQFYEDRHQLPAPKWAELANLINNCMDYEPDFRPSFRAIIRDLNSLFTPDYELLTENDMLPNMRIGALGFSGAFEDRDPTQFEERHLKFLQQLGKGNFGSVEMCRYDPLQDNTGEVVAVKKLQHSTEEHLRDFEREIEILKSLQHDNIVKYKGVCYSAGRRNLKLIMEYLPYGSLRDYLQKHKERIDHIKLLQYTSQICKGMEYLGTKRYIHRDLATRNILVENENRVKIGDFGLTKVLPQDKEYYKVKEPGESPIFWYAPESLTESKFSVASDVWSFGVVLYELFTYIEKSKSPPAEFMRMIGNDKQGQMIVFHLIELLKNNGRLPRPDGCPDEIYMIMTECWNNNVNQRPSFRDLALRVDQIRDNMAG
- assay procedure: pSTAT5 cell assay (MSD; TF1 cells, 30 ng/mL IL-3 stimulation)
- run conditions: 30 ng/mL IL-3, 15 minutes
Counter-ions that a name gives are not always drawn.

Worked cases, answers included:
CCc1ccc(-c2cc3c(N4C[C@@H](C)[C@@](C#N)(C5CC5)C4=O)ccnn3c2)cn1 [Example 174, trifluoroacetate]
5 to 10 µM
C[C@@H]1CN(c2nc(-c3cnn([C@H]4C[C@](C)(C#N)C4)c3)cn3ncc(F)c23)C(=O)[C@]1(C#N)C1CC1
0.1 to 1 µM
C[C@@H]1CN(c2nc(-c3cnn(C4CC(F)(F)C4)c3)cn3nccc23)C(=O)[C@]1(C#N)C1CC1
0.1 to 1 µM
C[C@@H]1CN(c2ccnn3cc(-c4ccc(S(C)(=O)=O)nc4)cc23)C(=O)[C@]1(C#N)C1CC1
> 10 µM
C[C@@H]1CN(c2nc(-c3cnn(-c4ccncc4)c3)cn3nccc23)C(=O)[C@]1(C#N)C1CC1
0.1 to 1 µM

*Q* Any idea what IC50 was measured for N#C[C@@]1(C2CC2)CCN(c2ccnn3cc(-c4cnn(C(F)F)c4)cc23)C1=O ?
*A* > 10 µM

*Q* Any idea what IC50 was measured for COc1ccc(-c2cc3c(N4C[C@@H](C)[C@@](C#N)(C5CC5)C4=O)ccnn3c2)nc1 [Example 145, trifluoroacetate] ?
*A* > 10 µM

----------
- test target: human TYK2 kinase domain (JH1) (Homo sapiens, UniProt P29597)
- Construct: recombinantly generated catalytic kinase (also known as JH1) domain of human JAK1, JAK2, JAK3 and TYK2
- Sequence (P29597 897-1176 limits assumed): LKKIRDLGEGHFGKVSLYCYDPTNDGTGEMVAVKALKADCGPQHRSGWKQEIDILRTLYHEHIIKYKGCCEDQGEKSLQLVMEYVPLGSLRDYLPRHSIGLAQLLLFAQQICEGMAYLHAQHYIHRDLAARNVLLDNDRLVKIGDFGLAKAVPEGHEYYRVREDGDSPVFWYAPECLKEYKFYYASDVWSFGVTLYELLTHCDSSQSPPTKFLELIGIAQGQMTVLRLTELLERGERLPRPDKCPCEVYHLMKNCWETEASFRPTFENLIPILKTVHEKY
- assay procedure: JH1 biochemical assay for TYK2 (ADP-Glo kinase assay, recombinant JH1 catalytic domain, JAK3-974 peptide, 10 μM ATP)
- run conditions: TYK2 JH1, ADP-Glo
- Protocol: Compounds of the disclosure were assessed for their ability to inhibit TYK2, JAK1, JAK2, and JAK3 activity. The inhibitory properties of the compounds of the disclosure described herein can be evidenced by testing in any one of the following protocols. The kinase activity of recombinantly generated catalytic kinase (also known as JH1) domain of human JAK1, JAK2, JAK3 and TYK2 were evaluated in a plate-based assay using the ADP-Glo™ Kinase Assay platform. […]
Structures can show the parent of a compound that is named as a salt.
experimental readout: IC50

Worked cases, answers included:
C[C@@H]1CN(c2nc(-c3ccc(F)nc3)cn3nccc23)C(=O)[C@]1(C#N)C1CC1 [Example 243, trifluoroacetate]
> 100 nM
COc1ncc(-c2cn3nccc3c(N3C[C@@H](C)[C@@](C#N)(C4CC4)C3=O)n2)cn1 [Example 240, trifluoroacetate]
> 100 nM
CNC(=O)c1cc(-c2cn3nccc3c(N3C[C@@H](C)[C@@](C#N)(C4CC4)C3=O)n2)ccn1 [Example 252, trifluoroacetate]
5 to 20 nM

*Q* Any idea what IC50 was measured for Cc1cc(-c2cc(N3C[C@@H](C)[C@@](C#N)(C4CC4)C3=O)c3ccnn3c2)n[nH]1 ?
*A* 5 to 20 nM

*Q* Any idea what IC50 was measured for C[C@@H]1CN(c2ccnn3cc(-c4cnn(C5CCN(C)C5)c4)cc23)C(=O)[C@]1(C#N)C1CC1 (stereo partly shown) ?
*A* < 5 nM

*Q* Any idea what IC50 was measured for CC(=O)Nc1cc(-c2cn3nccc3c(N3C[C@@H](C)[C@@](C#N)(C4CC4)C3=O)n2)ccn1 ?
*A* < 5 nM

*Q* Any idea what IC50 was measured for COCc1cnn(-c2cc3c(N4C[C@@H](C)[C@@](C#N)(C5CC5)C4=O)ccnn3c2)c1 ?
*A* 20 to 50 nM

The origin of these recorded values is patent US20260297085A1.
